- tested_target: UniProt P20309
- Sequence (P20309 whole entry): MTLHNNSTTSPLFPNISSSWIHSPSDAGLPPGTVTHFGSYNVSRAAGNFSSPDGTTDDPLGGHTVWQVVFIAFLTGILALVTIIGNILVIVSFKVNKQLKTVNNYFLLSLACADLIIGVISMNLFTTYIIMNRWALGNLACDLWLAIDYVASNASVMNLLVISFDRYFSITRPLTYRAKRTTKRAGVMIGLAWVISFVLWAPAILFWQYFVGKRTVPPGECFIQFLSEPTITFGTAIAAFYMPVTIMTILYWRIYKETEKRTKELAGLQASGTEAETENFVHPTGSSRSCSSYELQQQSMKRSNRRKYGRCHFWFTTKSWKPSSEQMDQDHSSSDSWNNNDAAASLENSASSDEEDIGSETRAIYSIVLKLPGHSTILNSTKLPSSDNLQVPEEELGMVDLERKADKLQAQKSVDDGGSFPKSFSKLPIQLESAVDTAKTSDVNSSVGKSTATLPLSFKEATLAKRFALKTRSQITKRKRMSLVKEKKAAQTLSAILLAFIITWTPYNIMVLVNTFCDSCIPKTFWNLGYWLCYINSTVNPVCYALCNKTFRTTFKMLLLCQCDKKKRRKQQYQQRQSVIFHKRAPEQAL
- test_protocol: Muscarinic Receptor Binding Assay: The study of binding to human muscarinic M1, M2, M3, M4 and M5 receptors was performed using commercial membranes (Perkin Elmer) prepared from CHO-K1 cells. Radioligand binding experiments were conducted in 96 polypropylene well plates in a total volume of 200 ul. All reagents were dissolved in assay binding buffer (PBS with calcium and magnesium, SIGMA), except compounds that were dissolved in DMSO 100%. Non-specific binding (NSB) was measured in the presence of 1 uM atropine. [3H]-NMS was used as the radioligand at a concentration of 1 nM for M2, M3 and M5 and 0.3 nM for M1 and M4. [3H]-NMS and antagonists were incubated with membranes that express human muscarinic receptors M1, M2, M3, M4 and M5 at concentrations of 8.1, 10, 4.9, 4.5 and 4.9 ug/well, respectively. After an incubation period of two hours with gentle shaking, 150 ul of the reaction mix were transferred to 96 GF/C filter plates (Millipore), previously treated with wash buffer.
metric: pIC50
Entry type: numeric. Quantity: pIC50, the -log10 of concentration in molar units.

Enquiry: Item `CN(CCCn1nnc2cc(CNC[C@H](O)c3ccc(O)c4c3OCC(=O)N4)ccc21)[C@H]1CC[C@H](OC(=O)[C@](O)(c2cccs2)C2CCCC2)CC1` has what recorded pIC50?
Return: 9.40
